target: CCR-3 (Homo sapiens, UniProt P51677); test: Inhibition of eotaxin-induced chemotaxis of CCR-3 transfectant cells (CCR3/U937); format: cell-based; design: expressed in transfected cells; host or cells: U937; conditions: compound 10 μM, eotaxin 1×10^−9 M, Table 3a
quantity-kind: Chemotaxis Assay 10 μM (inhibition %)

# annotated cases, reported Chemotaxis Assay 10 μM (inhibition %) shown
>>> print(df.to_string())
                                   compound                   experimental_system  readout_value
0  O=C(O)CCCN(CCCNC(=S)Nc1ccc(F)cc1)C1CCCc2ccccc21 (stereo not shown) [Compound 257]  CCR-3 (Homo sapiens, UniProt P51677)            100
1  O=C(O)CCCN(CCCNC(=S)Nc1ccc(I)cc1)C1CCCc2ccccc21 (stereo not shown) [Compound 249]  CCR-3 (Homo sapiens, UniProt P51677)            100
2  CC(C)(C)OC(=O)[C@H](CCN(CCCC(=O)O)C1CCCc2ccccc21)NC(=O)Nc1ccc(Br)cc1 (stereo partly shown) [Compound 166]  CCR-3 (Homo sapiens, UniProt P51677)            100
3  COC(=O)CCCN(CCCNC(=O)Nc1ccc(Br)cc1)CCc1ccc(OC)c(OC)c1 [Compound 43]  CCR-3 (Homo sapiens, UniProt P51677)             50
4  CC(C)NC(=O)[C@H](CCN(CCCC(=O)O)C1CCCc2ccccc21)NC(=O)Nc1ccc(Br)cc1 (stereo partly shown) [Compound 284]  CCR-3 (Homo sapiens, UniProt P51677)             95

I: COC(=O)CCCN(CCCNC(=S)Nc1ccc(Cl)c(Cl)c1)C1CCCc2ccccc21 (stereo not shown) [Compound 256]
II: COc1ccc(CN(CCCNC(=O)Nc2ccccc2)CCc2ccc(Cl)cc2)cc1 [Compound 18]
Lookup: Field: lower Chemotaxis Assay 10 μM (inhibition %) | Options: I / II Which one? Tell me its label.
Found: II

---

Target: UniProtKB P51677
Sequence (P51677 1-355): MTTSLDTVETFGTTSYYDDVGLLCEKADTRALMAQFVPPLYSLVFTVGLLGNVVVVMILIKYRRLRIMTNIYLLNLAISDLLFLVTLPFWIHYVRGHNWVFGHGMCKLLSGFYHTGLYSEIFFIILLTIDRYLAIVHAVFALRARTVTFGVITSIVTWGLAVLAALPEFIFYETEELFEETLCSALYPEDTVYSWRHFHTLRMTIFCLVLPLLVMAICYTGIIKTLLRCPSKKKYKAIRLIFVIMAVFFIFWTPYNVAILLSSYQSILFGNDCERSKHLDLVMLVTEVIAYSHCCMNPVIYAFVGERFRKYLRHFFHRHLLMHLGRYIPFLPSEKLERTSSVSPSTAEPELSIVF
Assay: Inhibition of eotaxin-induced chemotaxis of CCR-3 transfectant cells (CCR3/U937)
Format: cell-based
Design: expressed in transfected cells; host or cells: U937
Settings: compound 10 μM, eotaxin 1×10^−9 M, Table 3a
quantity-kind: Chemotaxis Assay 10 μM (inhibition %)

# annotated cases, reported Chemotaxis Assay 10 μM (inhibition %) shown
In [3]: df
Out[3]:
                                   molecule                          quantity_kind  readout_value
0  O=C(O)CCCN(CCCNC(=S)Nc1cccc(Br)c1)C1CCCc2ccccc21 (stereo not drawn)  Chemotaxis Assay 10 μM (inhibition %)             99
1  O=C(NCCCN(CCc1ccccc1)CCc1ccc(Cl)cc1)Nc1ccccc1  Chemotaxis Assay 10 μM (inhibition %)             88
2  COC(=O)CCCN(CC[C@H](NC(=O)Nc1ccc(Br)cc1)C(=O)NC(C)C)C1CCCc2ccccc21 (stereo partly drawn)  Chemotaxis Assay 10 μM (inhibition %)            100

P: O=C(O)CCCN(CCNC(=O)Nc1ccc(Br)cc1)C1CCCc2ccccc21 (stereo not drawn)
Q: CCCCOC(=O)c1ccc(NC(=O)NCCCN(CCCC(=O)O)C2CCCc3ccccc32)cc1 (stereo not drawn)
Lookup: Field: lower Chemotaxis Assay 10 μM (inhibition %) | Options: P / Q Which one? Tell me its label.
Found: P
(P: 58%, Q: 100%)

Where do these numbers come from? They come from patent US6875884B1.
